biological target: MIF/CD74 (Macrophage migration inhibitory factor and HLA-DR antigens-associated invariant chain) (Homo sapiens) (UniProt P14174+P04233); assay: Inhibition of human biotinylated MIF/CD74 interaction; assay type: protein assay
result_type: Imax (%)

Consider the reported Imax for these molecules:
INSERT INTO assay_data (structure_as_smiles, unit_string, recorded_measurement) VALUES
  ('Oc1ccc(-n2cc(Cc3ccccc3O)nn2)cc1', '%', 9),
  ('COc1ccc(Cc2cn(-c3ccc(O)cc3)nn2)cc1OC', '%', 22),
  ('COc1ccc(Cc2cn(-c3ccc(O)cc3)nn2)cc1', '%', 36);

a = COc1ccccc1Cc1cn(-c2ccc(O)cc2)nn1
b = Oc1ccc(-c2cn(Cc3ccccn3)nn2)cc1
Just curious, which one has the larger Imax reading, a or b ? Kindly give the label for the entry you pick.
b

P = Oc1ccc(-c2cn(-c3cccnc3)nn2)cc1
Q = Cc1cccc(Cc2cn(-c3ccc(O)cc3)nn2)c1
R = COc1cccc(Cc2cn(-c3ccc(O)cc3)nn2)c1
# rank_down: sort by Imax, max first Reply with the labels, ordered as the question asks.
Q, P, R

1 = Oc1ccc(-c2cn(Cc3cccnc3)nn2)cc1
2 = Oc1ccc(-c2cn(-c3cncc4ccccc34)nn2)cc1
# query: argmin of Imax over 1 and 2 Kindly give the label for the entry you pick.
2
(2: 12%, 1: 20%)

----------
target: Macrophage migration inhibitory factor (Homo sapiens); test: Inhibition of human MIF tautomerase activity using 4-hydroxyphenylpyruvate as substrate; conditions: read-out: IC50
result_type: IC50 (µM)

A = Oc1ccc(-n2cc(Cc3ccccc3O)nn2)cc1
B = Oc1ccc(Cc2cn(-c3ccc(O)cc3)nn2)cc1
C = COC(=O)c1cccc(Cn2cc(-c3ccc(O)cc3)nn2)c1
D = COc1cccc(Cn2cc(-c3ccc(O)cc3)nn2)c1OC
Endpoint returns the given molecules ordered by ascending IC50. Reply with the labels, ordered as the question asks.
D, C, B, A

----------
Molecular target: MIF/CD74 (Macrophage migration inhibitory factor and HLA-DR antigens-associated invariant chain) (Homo sapiens, UniProt P04233+P14174)
Sequence (P14174 whole entry): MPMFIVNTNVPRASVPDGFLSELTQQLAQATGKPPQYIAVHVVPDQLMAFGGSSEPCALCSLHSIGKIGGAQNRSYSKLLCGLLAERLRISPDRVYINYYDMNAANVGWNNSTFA
Sequence (P04233 whole entry): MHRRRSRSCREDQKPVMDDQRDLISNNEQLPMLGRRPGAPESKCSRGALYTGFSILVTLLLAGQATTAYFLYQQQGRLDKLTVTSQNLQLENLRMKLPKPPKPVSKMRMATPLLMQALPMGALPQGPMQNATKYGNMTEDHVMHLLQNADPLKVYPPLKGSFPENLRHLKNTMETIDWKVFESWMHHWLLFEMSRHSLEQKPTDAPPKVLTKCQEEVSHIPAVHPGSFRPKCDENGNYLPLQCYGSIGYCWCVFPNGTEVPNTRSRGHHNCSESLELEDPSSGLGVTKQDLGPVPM
Experiment: Inhibition of human biotinylated MIF/CD74 interaction
pIC50: −log10 of the molar value.
result_type: pIC50

INSERT INTO results (structure_as_smiles, result_type, recorded_measurement) VALUES
  ('COc1cccc(Cn2cc(-c3ccc(O)cc3)nn2)c1OC', 'pIC50', 6.05);

I = Oc1ccc(-n2cc(Cc3ccccc3)nn2)cc1
II = COC(=O)c1cccc(Cn2cc(-c3ccc(O)cc3)nn2)c1
Just curious, which one has the larger pIC50 reading, I or II ? Kindly give the label for the entry you pick.
II
(II: 5.92, I: 5.46)

----------
target: MIF/CD74 (Macrophage migration inhibitory factor and HLA-DR antigens-associated invariant chain) (Homo sapiens, UniProt P14174+P04233); experiment: Inhibition of human biotinylated MIF/CD74 interaction; assay type: protein assay
result_type: IC50

INSERT INTO measurements (structure_as_smiles, result_type, recorded_measurement) VALUES
  ('Cc1ccccc1Cn1cc(-c2ccc(O)cc2)nn1', 'IC50', 'Not Active'),
  ('O=C(O)c1cccc(Cn2cc(-c3ccc(O)cc3)nn2)c1', 'IC50', 'Not Active'),
  ('Oc1ccc(-n2cc(Cc3cccc(O)c3)nn2)cc1', 'IC50', 'Not Active');
